Data origin, for the record: patent US20190309309A1

In this section, each of the compounds is paired with its reported μ, mean.
test system: Escherichia coli K-12 MG1655; assay: Screening for tolerance in wild-type cells: growth in varying concentrations of diols (Biolector); type: cell-based; conditions: growth rate of K-12 MG1655, diol 1% (v/v)
Only the number, expressed in h⁻¹, is required.

Below, 3 compounds whose answers are already recorded.
# compound, targetOrSystem, μ, mean [h⁻¹]
data = [
    ("OCCCCCO", "Escherichia coli K-12 MG1655", 0.569),
    ("CCCC(O)CO (stereo not shown)", "Escherichia coli K-12 MG1655", 0.346),
    ("CC(O)C(C)O (stereo not shown)", "Escherichia coli K-12 MG1655", 0.791),
]

Prompt: Give the reported μ, mean for CC(O)CO (stereo not shown) (system: Escherichia coli K-12 MG1655).
Completion: 0.662
